Where these numbers come from: patent US20070078096A1

ASSAY METHOD TEXT: pKa, pI and charge distribution of buffers
EXPERIMENTAL CONTEXT: fraction of dipeptide carrying a net charge in aqueous solution at pH equal to pI
Non-standard residues stand in square brackets, D forms with d. Residues, ends and D or L forms follow the SMILES beside them. Orn = NCCC[C@H](N)C(=O)O
READOUT TYPE: % salt (%)

{"columns": ["COMPOUND", "UNIT TAG", "MEASURED RESULT"],
 "data": [
  ["NC(N)=NCCC[C@H](N)C(=O)N[C@@H](CCC(=O)O)C(=O)O [Arg-Glu] (H-Arg-Glu-OH)", "%", 3],
  ["NC(N)=NCCC[C@H](NC(=O)[C@@H](N)Cc1ccc(O)cc1)C(=O)O", "%", 17],
  ["NCCCC[C@H](N)C(=O)N[C@@H](Cc1cnc[nH]1)C(=O)O", "%", 5],
  ["NCCC[C@H](NC(=O)[C@@H](N)Cc1c[nH]cn1)C(=O)O [His-Ornithine] (H-His-[Orn]-OH)", "%", 5],
  ["N[C@@H](Cc1cnc[nH]1)C(=O)N[C@@H](Cc1ccccc1)C(=O)O [His-Phe] (H-His-Phe-OH)", "%", 22]
]}

---

ASSAY METHOD TEXT: pKa, pI and charge distribution of buffers
Source text: At the pI, three species coexist. In an electric field these negative species move in the opposite direction of their positive associated counterions. Choice of the dipeptide buffer will be on a case-by-case basis depending on the drug compound and the desired level of pH control and conductivity of the formulation.
Non-standard residues stand in square brackets, D forms with d. Residues, ends and D or L forms follow the SMILES beside them. Orn = NCCC[C@H](N)C(=O)O
pka A: recorded values

{"columns": ["MOLECULE", "pka A"],
 "data": [
  ["N[C@@H](Cc1ccccc1)C(=O)N[C@@H](Cc1cnc[nH]1)C(=O)O [Phe-His] (H-Phe-His-OH)", 2.42],
  ["O=C(O)[C@H](Cc1c[nH]cn1)NC(=O)[C@@H]1CC(O)CN1 (stereo partly drawn) [Hydroxyproline-His]", 2.42],
  ["NCCC[C@H](NC(=O)[C@@H](N)Cc1c[nH]cn1)C(=O)O [His-Ornithine] (H-His-[Orn]-OH)", 2.82]
]}

---

ASSAY METHOD TEXT: pKa, pI and charge distribution of buffers
EXPERIMENTAL CONTEXT: fraction of dipeptide carrying a net charge in aqueous solution at pH equal to pI
Residues, ends and D or L forms follow the SMILES beside them.
READOUT TYPE: % salt

{"columns": ["MOLECULE", "MEASURED RESULT"],
 "data": [
  ["NCCC(=O)N[C@@H](Cc1cnc[nH]1)C(=O)O", "8%"],
  ["NCCCC[C@H](N)C(=O)N[C@@H](CCC(=O)O)C(=O)O [Lys-Glu] (H-Lys-Glu-OH)", "3%"],
  ["NCCCC[C@H](NC(=O)[C@@H](N)CCC(=O)O)C(=O)O [Glu-Lys] (H-Glu-Lys-OH)", "2%"],
  ["O=C(O)[C@H](Cc1c[nH]cn1)NC(=O)[C@@H]1CC(O)CN1 (some centres unmarked) [Hydroxyproline-His]", "25%"],
  ["NCCCC[C@H](NC(=O)[C@@H](N)Cc1cnc[nH]1)C(=O)O [His-Lys] (H-His-Lys-OH)", "5%"]
]}

---

ASSAY METHOD TEXT: pKa, pI and charge distribution of buffers
EXPERIMENTAL CONTEXT: Table 2
Non-standard residues stand in square brackets, D forms with d. Residues, ends and D or L forms follow the SMILES beside them. Cit = NC(=O)NCCC[C@H](N)C(=O)O

{"columns": ["MOLECULE", "pI"],
 "data": [
  ["C[C@@H](O)[C@H](NC(=O)[C@@H](N)Cc1cnc[nH]1)C(=O)O [His-Thr] (H-His-Thr-OH)", 6.95],
  ["NC(=O)NCCC[C@H](NC(=O)[C@@H](N)Cc1c[nH]cn1)C(=O)O [His-Citrulline] (H-His-[Cit]-OH)", 6.95],
  ["CC[C@H](C)[C@H](NC(=O)[C@@H](N)Cc1cnc[nH]1)C(=O)O [His-Isoleucine] (H-His-Ile-OH)", 6.95],
  ["N[C@@H](Cc1cnc[nH]1)C(=O)N[C@@H](Cc1c[nH]c2ccccc12)C(=O)O", 6.95],
  ["NC(=O)C[C@H](NC(=O)[C@@H](N)Cc1cnc[nH]1)C(=O)O [His-Asn] (H-His-Asn-OH)", 6.95],
  ["NCCCC[C@H](N)C(=O)N[C@@H](CCC(=O)O)C(=O)O [Lys-Glu] (H-Lys-Glu-OH)", 6.06]
]}
